quantity kind: melting point

Exam item: Complete the entry with melting point for COc1ccc(NC(C)=O)cc1C(=O)O
Marked response: 208 to 210 °C

Exam item: Complete the entry with melting point for CC(=O)Nc1cccn(CC(=O)NC(C(=O)C(F)(F)F)C(C)C)c1=O (stereo unspecified)
Marked response: 76 to 80 °C

Exam item: Complete the entry with melting point for CCOC(=O)CN1C(=O)Nc2cccc(OC)c2C1C (stereo unspecified)
Marked response: 150 to 151 °C

Exam item: Complete the entry with melting point for N#Cc1cccc2c1CC(=O)c1cc(F)ccc1S2
Marked response: 174 to 175 °C

Exam item: Complete the entry with melting point for CCSCCC(=O)NCC(=O)N1Cc2ccccc2Oc2ccc(Cl)cc21
Marked response: 148 to 151 °C

Exam item: Complete the entry with melting point for O=C1N=NC(=O)c2c1[nH]c1cc(Cl)cc(Cl)c21
Marked response: > 300 °C

# credit: a melting point compilation (Tetko et al.; mined from patent text by program, amines drawn as free bases though some values may be those of a salt)
